IC50 values, listed per item
- System: Aβ-38
- experimental protocol: Aβ-38 MSD 3-plex ELISA, conditioned media of 2B7 cells
- Assay type: cell-based
- setup conditions: Homo sapiens, 5 hours treatment, read-out: Aβ 38 IC50

Below, 6 compounds whose answers are already recorded.
CCO[C@@H]([C@H]1C[C@@H](C)[C@H]2[C@H](O1)[C@H](O)[C@@]1(C)[C@@H]3CC[C@H]4C(C)(C)[C@@H](O[C@H]5CN(CC6(O)CN(CCOC)C6)CCO5)CC[C@@]45C[C@@]35CC[C@]21C)C(C)(C)O    100 to 500 nM
CCO[C@@H]([C@H]1C[C@@H](C)[C@H]2[C@H](O1)[C@H](O)[C@@]1(C)[C@@H]3CC[C@H]4C(C)(C)[C@@H](O[C@H]5CN(CC6CN(CC(C)(C)C)C6)CCO5)CC[C@@]45C[C@@]35CC[C@]21C)C(C)(C)O    501 to 1000 nM
CCO[C@@H]([C@H]1C[C@@H](C)[C@H]2[C@H](O1)[C@H](O)[C@@]1(C)[C@@H]3CC[C@H]4C(C)(C)[C@@H](O[C@H]5CN(C6(C)CN(CC(C)(C)C)C6)CCO5)CC[C@@]45C[C@@]35CC[C@]21C)C(C)(C)O    100 to 500 nM
CCO[C@@H]([C@H]1C[C@@H](C)[C@H]2[C@H](O1)[C@H](O)[C@@]1(C)[C@@H]3CC[C@H]4C(C)(C)[C@@H](O[C@H]5CN(C6(C)CN(C7CCC7)C6)CCO5)CC[C@@]45C[C@@]35CC[C@]21C)C(C)(C)O    100 to 500 nM
CCO[C@@H]([C@H]1C[C@@H](C)[C@H]2[C@H](O1)[C@H](O)[C@@]1(C)[C@@H]3CC[C@H]4C(C)(C)[C@@H](O[C@H]5CN(CC6(O)CN(C7COC7)C6)CCO5)CC[C@@]45C[C@@]35CC[C@]21C)C(C)(C)O    100 to 500 nM
CCO[C@@H]([C@H]1C[C@@H](C)[C@H]2[C@H](O1)[C@H](O)[C@@]1(C)[C@@H]3CC[C@H]4C(C)(C)[C@@H](O[C@H]5CN(CC6(O)CN(C)C6)CCO5)CC[C@@]45C[C@@]35CC[C@]21C)C(C)(C)O    100 to 500 nM

Query block: Quick one: IC50 for CCO[C@@H]([C@H]1C[C@@H](C)[C@H]2[C@H](O1)[C@H](O)[C@@]1(C)[C@@H]3CC[C@H]4C(C)(C)[C@@H](O[C@H]5CN(C6CN(C(CO)CO)C6)CCO5)CC[C@@]45C[C@@]35CC[C@]21C)C(C)(C)O ?
Result block: 100 to 500 nM

Query block: Quick one: IC50 for CCO[C@@H]([C@H]1C[C@@H](C)[C@H]2[C@H](O1)[C@H](O)[C@@]1(C)[C@@H]3CC[C@H]4C(C)(C)[C@@H](O[C@H]5CN(CCN6CC(F)(F)C6)CCO5)CC[C@@]45C[C@@]35CC[C@]21C)C(C)(C)O ?
Result block: 501 to 1000 nM
